System: Bovine brain tubulin
protocol: Tubulin thermal aggregation assay (absorbance at 340 nm)
Assay type: biochemical
details: synthetic peptide; 34 μM tubulin, 52° C., 60 minutes
endpointName: effect on thermal aggregation of tubulin

FISREFHR    decreased
LTITSSLSSDGV    decreased
ERTIPITRE [synthetic peptide of human αB crystallin C-terminal extension, residues 156-164]    decreased
